Tested on: ARNT (Homo sapiens)
Construct: an sgRNA targeting the C-terminus of the ARNT gene near the stop codon; endogenous in cells; host or cells: HEK293 ARNT-HiBiT knock-in, homozygous clone
Test method notes: ARNT degradation in a HiBiT system (HEK293 ARNT-HiBiT Knock-In cell line)
Type: cell-based
Measurement parameters: half-maximal degradation concentration; HEK293 ARNT-HiBiT KI cells, 4h of treatment, luminescence
Listed next: entries and their corresponding DC50.

Known DC50 results, listed for orientation:
{"columns": ["Molecule", "DC50"],
 "data": [
  ["C[C@@H]1c2cc(C(=O)N3Cc4c(ccc(Br)c4F)[C@@H]3C)ccc2C(=O)N1[C@H]1CCC(=O)NC1=O", "1200 pM"],
  ["C[C@@H]1c2cc(C(=O)N3Cc4cc(F)ccc4[C@@H]3C)ccc2C(=O)N1[C@H]1CCC(=O)NC1=O", "780 pM"],
  ["C[C@@H]1c2cc(C(=O)N3Cc4ccccc4[C@@H]3CN(C)C)ccc2C(=O)N1[C@H]1CCC(=O)NC1=O", "290 pM"]
]}

// next entry
Output measured DC50 for this item: C[C@H]1c2ccc(C(F)(F)F)cc2CN1C(=O)c1ccc2c(c1)CN(C1CCC(=O)NC1=O)C2=O (stereo partly shown)
7600 pM

* * *

Tested on: ARNT (Homo sapiens, UniProt P27540)
Construct: an sgRNA targeting the C-terminus of the ARNT gene near the stop codon; endogenous in cells; host or cells: HEK293 ARNT-HiBiT knock-in, homozygous clone
Sequence (P27540 whole entry): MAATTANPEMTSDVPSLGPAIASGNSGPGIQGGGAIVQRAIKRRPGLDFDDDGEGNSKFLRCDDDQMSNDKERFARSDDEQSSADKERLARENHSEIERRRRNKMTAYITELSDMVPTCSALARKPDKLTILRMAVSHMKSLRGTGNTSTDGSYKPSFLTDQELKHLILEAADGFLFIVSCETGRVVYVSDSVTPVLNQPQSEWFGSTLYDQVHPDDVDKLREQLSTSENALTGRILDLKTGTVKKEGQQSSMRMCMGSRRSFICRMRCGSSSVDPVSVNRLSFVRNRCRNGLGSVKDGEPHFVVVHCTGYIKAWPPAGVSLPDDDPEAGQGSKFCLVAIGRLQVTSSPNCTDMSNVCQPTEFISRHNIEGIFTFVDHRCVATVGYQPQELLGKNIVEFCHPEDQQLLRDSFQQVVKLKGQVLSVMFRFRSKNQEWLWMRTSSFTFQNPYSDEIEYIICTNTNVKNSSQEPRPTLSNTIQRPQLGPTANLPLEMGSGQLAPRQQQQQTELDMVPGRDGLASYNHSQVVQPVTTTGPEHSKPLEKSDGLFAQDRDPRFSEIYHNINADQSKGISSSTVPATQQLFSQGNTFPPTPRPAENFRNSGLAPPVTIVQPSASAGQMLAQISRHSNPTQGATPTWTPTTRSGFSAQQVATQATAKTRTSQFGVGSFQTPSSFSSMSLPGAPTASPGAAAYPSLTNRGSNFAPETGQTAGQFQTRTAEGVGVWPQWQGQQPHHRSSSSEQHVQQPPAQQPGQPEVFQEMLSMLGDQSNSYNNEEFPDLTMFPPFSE
Test method notes: ARNT degradation in a HiBiT system (HEK293 ARNT-HiBiT Knock-In cell line)
Format: cell-based
Measurement parameters: half-maximal degradation concentration; HEK293 ARNT-HiBiT KI cells, 4h of treatment, luminescence
Listed next: entries and their corresponding DC50.
# unit: nM | format: bare number

Known DC50 results, listed for orientation:
{"columns": ["Compound", "DC50, nM"],
 "data": [
  ["COc1cccc2c1CN(C(=O)c1ccc3c(c1)[C@@H](C)N([C@H]1CCC(=O)NC1=O)C3=O)[C@H]2CN(C)C [Compound 11]", 0.72],
  ["CCOc1ccc2c(c1C)CN(C(=O)c1ccc3c(c1)[C@@H](C)N([C@H]1CCC(=O)NC1=O)C3=O)[C@H]2C [Compound 23]", 1.3],
  ["C[C@@H]1c2cc(C(=O)N3Cc4cc(Br)ccc4[C@@H]3C)ccc2C(=O)N1[C@H]1CCC(=O)NC1=O [Compound 9]", 0.66],
  ["C[C@@H]1c2cc(C(=O)N3Cc4c(ccc(Cl)c4F)[C@@H]3CN3CC(F)(F)C3)ccc2C(=O)N1[C@H]1CCC(=O)NC1=O [Compound 15]", 1],
  ["COc1ccc2c(c1)CN(C(=O)c1ccc3c(c1)[C@@H](C)N([C@H]1CCC(=O)NC1=O)C3=O)[C@H]2CN(C)C [Compound 28]", 1.7]
]}

Output measured DC50 for this item: C[C@@H]1c2cc(C(=O)N3Cc4c(ccc(Cl)c4F)[C@@H]3CN3CCC(F)CC3)ccc2C(=O)N1[C@H]1CCC(=O)NC1=O [Compound 12]
0.73

* * *

Tested on: ARNT (Homo sapiens, UniProt P27540)
Construct: an sgRNA targeting the C-terminus of the ARNT gene near the stop codon; endogenous in cells; host or cells: HEK293 ARNT-HiBiT knock-in, homozygous clone
Test method notes: ARNT degradation in a HiBiT system (HEK293 ARNT-HiBiT Knock-In cell line)
Type: cell-based
Measurement parameters: half-maximal degradation concentration; HEK293 ARNT-HiBiT KI cells, 4h of treatment, luminescence
Mark true (1) for DC50 under 1 nM, false (0) if at or over.

{"columns": ["Compound", "Class label"],
 "data": [
  ["C[C@@H]1c2cc(C(=O)N3Cc4c(ccc(Br)c4Cl)[C@@H]3C)ccc2C(=O)N1[C@H]1CCC(=O)NC1=O [Compound 24]", "false (0)"],
  ["C[C@@H]1c2cc(C(=O)N3Cc4c(Br)cccc4[C@@H]3CN(C)C)ccc2C(=O)N1[C@H]1CCC(=O)NC1=O [Compound 3]", "true (1)"],
  ["C[C@@H]1c2cc(C(=O)N3Cc4c(ccc(Cl)c4F)[C@@H]3CN3CCCCC3)ccc2C(=O)N1[C@H]1CCC(=O)NC1=O [Compound 6]", "true (1)"]
]}

Quick check: does COc1c(Br)ccc2c1CN(C(=O)c1ccc3c(c1)[C@@H](C)N([C@H]1CCC(=O)NC1=O)C3=O)[C@H]2C [Compound 22] have DC50 under 1 nM?
false (0)

Quick check: does COc1c(C(=O)N2Cc3cc(C(F)(F)F)ccc3[C@@H]2C)ccc2c1[C@@H](C)N([C@H]1CCC(=O)NC1=O)C2=O [Compound 35] have DC50 under 1 nM?
false (0)

Quick check: does COc1c(C(=O)N2Cc3c(ccc(Cl)c3F)[C@@H]2C)ccc2c1[C@@H](C)N([C@H]1CCC(=O)NC1=O)C2=O [Compound 33] have DC50 under 1 nM?
false (0)

Quick check: does C[C@@H]1c2cc(C(=O)N3Cc4cc(C(F)(F)F)ccc4[C@@H]3C)c(F)cc2C(=O)N1[C@H]1CCC(=O)NC1=O [Compound 20] have DC50 under 1 nM?
false (0)

Quick check: does C[C@@H]1c2cc(C(=O)N3Cc4cc(C(F)(F)F)ccc4[C@@H]3C)ccc2C(=O)N1[C@@H]1CCC(=O)NC1=O [Compound 37] have DC50 under 1 nM?
false (0)

Quick check: does C[C@@H]1c2cc(C(=O)N3Cc4c(ccc(Cl)c4F)[C@@H]3CN3CC4CCC3C4)ccc2C(=O)N1[C@H]1CCC(=O)NC1=O (stereo partly shown) [Compound 10] have DC50 under 1 nM?
true (1)

* * *

Listed next: entries and their corresponding DC50.
Tested on: ARNT (Homo sapiens)
Construct: an sgRNA targeting the C-terminus of the ARNT gene near the stop codon; endogenous in cells; host or cells: HEK293 ARNT-HiBiT knock-in, homozygous clone
Test method notes: ARNT degradation in a HiBiT system (HEK293 ARNT-HiBiT Knock-In cell line)
Type: cell-based
Measurement parameters: half-maximal degradation concentration; HEK293 ARNT-HiBiT KI cells, 4h of treatment, luminescence
# unit: nM | format: bare number

Known DC50 results, listed for orientation:
{"columns": ["Compound", "Unit label", "DC50"],
 "data": [
  ["C[C@H]1c2ccc(C(F)(F)F)cc2CN1C(=O)c1ccc2c3c(cccc13)N(C1CCC(=O)NC1=O)C2=O (stereo partly shown)", "nM", 1],
  ["COc1ccc2c(c1Br)CN(C(=O)c1ccc3c(c1)[C@@H](C)N([C@H]1CCC(=O)NC1=O)C3=O)[C@H]2CN(C)C", "nM", 0.95],
  ["C[C@@H]1c2cc(C(=O)N3Cc4cc(F)c(F)cc4[C@@H]3C)ccc2C(=O)N1[C@H]1CCC(=O)NC1=O", "nM", 1.3]
]}

Output measured DC50 for this item: C[C@@H]1c2cc(C(=O)N3Cc4c(ccc(Cl)c4F)[C@@H]3CN(C)C)ccc2C(=O)N1[C@H]1CCC(=O)NC1=O
0.33

This collection of values is drawn from patent US20250368620A1.
